experiment: Acute toxicity in Kunming mouse assessed as survival at 105 mg/kg, po measured for 2 weeks; assay type: organism-based; settings: in vivo
reportedMetric: survival at 336 h (%)
Number in %, nothing else.

# return recorded survival at 336 h for entry Cl.N[C@H]1CCN(c2c3c(nc4ccc(-c5ccnc(NC(=O)C6CC6)n5)cc24)CCCCC3)C1
50

###

biological target: Cholinesterase (Equus caballus); experiment: Inhibition of equine serum BuChE using […] as substrate for 20 mins by Ellman's method
Sequence (P81908 whole entry): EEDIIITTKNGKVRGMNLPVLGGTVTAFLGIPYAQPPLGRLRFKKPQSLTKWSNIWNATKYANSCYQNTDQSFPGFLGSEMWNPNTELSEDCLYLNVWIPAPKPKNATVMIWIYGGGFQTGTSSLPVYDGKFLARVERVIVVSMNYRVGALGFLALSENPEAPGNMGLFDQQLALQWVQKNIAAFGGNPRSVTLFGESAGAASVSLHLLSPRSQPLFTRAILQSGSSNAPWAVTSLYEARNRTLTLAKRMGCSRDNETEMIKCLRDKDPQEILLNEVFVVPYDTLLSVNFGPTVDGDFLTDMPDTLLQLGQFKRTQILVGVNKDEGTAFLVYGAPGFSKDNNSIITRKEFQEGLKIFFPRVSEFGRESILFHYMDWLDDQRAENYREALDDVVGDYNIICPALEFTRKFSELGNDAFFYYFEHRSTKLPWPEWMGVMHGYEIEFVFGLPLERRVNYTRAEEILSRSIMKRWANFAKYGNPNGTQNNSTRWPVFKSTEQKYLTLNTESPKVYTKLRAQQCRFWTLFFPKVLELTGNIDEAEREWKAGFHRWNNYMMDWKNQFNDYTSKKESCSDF
reportedMetric: pIC50
The meaning of pIC50 here: minus log10 of the concentration in molar units.

# return recorded pIC50 for entry N[C@H]1CCN(c2c3c(nc4ccc(-c5ccnc(NC(=O)C6CC6)c5)cc24)CCC3)C1
5.22

# return recorded pIC50 for entry N[C@H]1CCN(c2c3c(nc4ccc(-c5ccccc5)cc24)CCCCC3)C1
6.88

# return recorded pIC50 for entry N[C@H]1CCN(c2c3c(nc4ccc(-c5ccnc(C(=O)NC6CC6)c5)cc24)CCCCC3)C1
5.30

# return recorded pIC50 for entry N[C@H]1CCN(c2c3c(nc4ccc(-c5ccnc(NC(=O)C6CCC6)c5)cc24)CCCCCC3)C1
6.16

# return recorded pIC50 for entry N[C@H]1CCN(c2c3c(nc4ccc(-c5ccnc(Nc6ccc(S(=O)(=O)N7CCOCC7)cc6)c5)cc24)CCCCC3)C1
5.74

###

system: MCF7; experiment: Antiproliferative activity against human MCF7 cells assessed as cell growth inhibition after 72 hrs by MTT assay; type: functional
Task for the reader: assign each of the following molecules its reported GI50.
Number in µM, nothing else.

# lookup: MCF7 GI50, key = N[C@H]1CCN(c2c3c(nc4ccc(-c5ccnc(NC(=O)C6CC6)c5)cc24)CCCCC3)C1
0.076

# lookup: MCF7 GI50, key = N[C@H]1CCN(c2c3c(nc4ccc(-c5ccnc(Nc6cccc(S(=O)(=O)N7CCOCC7)c6)c5)cc24)CCCCC3)C1
3.44

# lookup: MCF7 GI50, key = CN(C)S(=O)(=O)c1ccc(Nc2cc(-c3ccc4nc5c(c(N6CC[C@H](N)C6)c4c3)CCCCC5)ccn2)cc1
3.11

###

target: CDK2/Cyclin A2 (Homo sapiens) (UniProt P24941+P20248); assay: Inhibition of human full length CDK2/CyclinA2 at 500 nM by ADP-Glo kinase assay relative to control; assay type: protein-complex assay
Task for the reader: assign each of the following compounds its reported inhibition.
Number in %, nothing else.

# lookup: CDK2/Cyclin A2 (Homo sapiens) (UniProt P24941+P20248) inhibition, key = CS(=O)(=O)c1ccc(Nc2cc(-c3ccc4nc5c(c(N6CC[C@H](N)C6)c4c3)CCCCC5)ccn2)cc1
90.1

# lookup: CDK2/Cyclin A2 (Homo sapiens) (UniProt P24941+P20248) inhibition, key = N[C@H]1CCN(c2c3c(nc4ccc(-c5ccnc(Nc6ccc(S(=O)(=O)N7CCCC7)cc6)c5)cc24)CCCCC3)C1
74.8

# lookup: CDK2/Cyclin A2 (Homo sapiens) (UniProt P24941+P20248) inhibition, key = CN1CCN(S(=O)(=O)c2ccc(Nc3cc(-c4ccc5nc6c(c(N7CC[C@H](N)C7)c5c4)CCCCC6)ccn3)cc2)CC1
85

# lookup: CDK2/Cyclin A2 (Homo sapiens) (UniProt P24941+P20248) inhibition, key = N[C@H]1CCN(c2c3c(nc4ccc(-c5ccnc(Nc6ccc(S(=O)(=O)N7CCNCC7)cc6)c5)cc24)CCCCC3)C1
84

# lookup: CDK2/Cyclin A2 (Homo sapiens) (UniProt P24941+P20248) inhibition, key = N[C@H]1CCN(c2c3c(nc4ccc(-c5ccnc(Nc6ccc(S(=O)(=O)N7CCOCC7)cc6)c5)cc24)CCCCC3)C1
89.5
